target.desc: Serine/threonine-protein kinase B-raf (Homo sapiens)
test.summary: Inhibition of human recombinant his6-tagged B-Raf expressed in Sf9 cells assessed as inhibition of MEK1 phosphorylation after 60 mins
assay.endpoint: IC50 (µM)

{"chem.smiles": "O=C(Nc1cccc(Nc2cc3c(=O)[nH][nH]c(=O)c3cc2Cl)c1)c1cccc(C(F)(F)F)c1", "assay.endpoint": "IC50", "unit.tag": "µM", "observed.value": 0.017}
{"chem.smiles": "O=C(Nc1cccc(Nc2cc3c(=O)[nH][nH]c(=O)c3cc2Cl)c1)c1cccc(Br)c1", "assay.endpoint": "IC50", "unit.tag": "µM", "observed.value": 0.019}
{"chem.smiles": "O=c1[nH][nH]c(=O)c2cc(Nc3cccc(O)c3)c(Nc3cccc(O)c3)cc12", "assay.endpoint": "IC50", "unit.tag": "µM", "observed.value": 0.29}
{"chem.smiles": "O=C1NC(=O)c2cc3c(-c4cccc(O)c4)c[nH]c3cc21", "assay.endpoint": "IC50", "unit.tag": "µM", "observed.value": 3.47}

I: O=c1[nH][nH]c(=O)c2cc(Nc3cccc(O)c3)c(Nc3ccccc3)cc12
II: O=C(Nc1cccc(Nc2cc3c(cc2Cl)C(=O)NC3=O)c1)c1cccc(Cl)c1
III: N#Cc1cccc(C(=O)Nc2cccc(Nc3cc4c(cc3Cl)C(=O)NC4=O)c2)c1
IV: O=C(Nc1cccc(Nc2cc3c(=O)[nH][nH]c(=O)c3cc2Cl)c1)c1cccc(OC(F)(F)F)c1
Q. List from greatest to least IC50. Answer format: the labels, ordered as requested.
A. I, III, II, IV
(I: 3.77 µM, III: 0.297 µM, II: 0.117 µM, IV: 0.018 µM)

---

target.desc: Serine/threonine-protein kinase B-raf (Homo sapiens, UniProt P15056)
Sequence (P15056 whole entry): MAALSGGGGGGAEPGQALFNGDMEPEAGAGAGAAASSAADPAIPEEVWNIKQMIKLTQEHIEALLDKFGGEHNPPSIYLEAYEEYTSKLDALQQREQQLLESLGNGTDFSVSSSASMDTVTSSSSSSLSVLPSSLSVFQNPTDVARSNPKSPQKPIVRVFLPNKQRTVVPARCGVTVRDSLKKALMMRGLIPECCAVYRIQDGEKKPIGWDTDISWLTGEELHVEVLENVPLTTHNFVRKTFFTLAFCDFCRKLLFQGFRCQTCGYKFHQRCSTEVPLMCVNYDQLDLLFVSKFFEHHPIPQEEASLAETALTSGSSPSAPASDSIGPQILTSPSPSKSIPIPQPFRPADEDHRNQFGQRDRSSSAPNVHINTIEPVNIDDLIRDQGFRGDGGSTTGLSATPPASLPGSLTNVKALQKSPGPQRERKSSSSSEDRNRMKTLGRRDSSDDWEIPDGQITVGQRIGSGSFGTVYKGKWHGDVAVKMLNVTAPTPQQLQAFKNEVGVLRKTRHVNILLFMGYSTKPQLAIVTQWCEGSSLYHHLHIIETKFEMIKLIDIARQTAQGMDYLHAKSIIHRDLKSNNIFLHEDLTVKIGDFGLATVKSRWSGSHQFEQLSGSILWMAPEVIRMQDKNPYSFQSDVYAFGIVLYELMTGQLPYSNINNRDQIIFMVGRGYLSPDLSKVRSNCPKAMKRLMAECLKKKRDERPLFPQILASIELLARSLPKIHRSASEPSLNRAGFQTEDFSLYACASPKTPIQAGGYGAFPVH
test.summary: Inhibition of human recombinant his6-tagged B-Raf expressed in Sf9 cells assessed as inhibition of MEK1 phosphorylation after 60 mins
assay.endpoint: IC50 (nM)

a: Cn1nc(C(C)(C)C)cc1C(=O)Nc1cccc(Nc2cc3c(cc2Cl)C(=O)NC3=O)c1
b: O=C(Nc1cccc(Nc2cc3c(cc2Cl)C(=O)NC3=O)c1)c1cccc(Br)c1
Q. // which entry reports the smaller IC50, a or b ? Mark your answer with the label of the selected entry.
A. b

A: O=C(Nc1cccc(Nc2cc3c(=O)[nH][nH]c(=O)c3cc2Cl)c1)c1cccc(Cl)c1
B: O=C(Nc1cccc(Nc2cc3c(cc2Cl)C(=O)NC3=O)c1)c1cccc(I)c1
Q. When their IC50 values are compared, which is larger, A or B ? Mark your answer with the label of the selected entry.
A. A
(A: 35 nM, B: 8 nM)

---

target.desc: Serine/threonine-protein kinase B-raf (Homo sapiens, UniProt P15056)
test.summary: Inhibition of human recombinant his6-tagged B-Raf expressed in Sf9 cells assessed as inhibition of MEK1 phosphorylation after 60 mins
pIC50: −log10 of the molar value.
assay.endpoint: pIC50

These solved cases illustrate the format of a correct answer.
{"chem.smiles": "O=C1NC(=O)c2cc(Nc3cccc(O)c3)c(Nc3cccc(O)c3)cc21", "pIC50": 6.47}
{"chem.smiles": "Cn1nc(C(C)(C)C)cc1C(=O)Nc1cccc(Nc2cc3c(=O)[nH][nH]c(=O)c3cc2Cl)c1", "pIC50": 6.53}
{"chem.smiles": "O=C(Nc1cccc(Nc2cc3c(cc2Cl)C(=O)NC3=O)c1)c1cccc(OC(F)(F)F)c1", "pIC50": 8.22}
{"chem.smiles": "N#Cc1cccc(C(=O)Nc2cccc(Nc3cc4c(=O)[nH][nH]c(=O)c4cc3Cl)c2)c1", "pIC50": 6.53}

1: O=C(Nc1cccc(Nc2cc3c(cc2Cl)C(=O)NC3=O)c1)c1cccc(C(F)(F)F)c1
2: O=C1NC(=O)c2cc(Nc3cccc(O)c3)c(Nc3ccccc3)cc21
Q. When their pIC50 values are compared, which is larger, 1 or 2 ? Mark your answer with the label of the selected entry.
A. 1
(1: 8.00, 2: 5.77)
